Biological target: MAO-B microsomes (Homo sapiens)
Sequence (P27338 1-520): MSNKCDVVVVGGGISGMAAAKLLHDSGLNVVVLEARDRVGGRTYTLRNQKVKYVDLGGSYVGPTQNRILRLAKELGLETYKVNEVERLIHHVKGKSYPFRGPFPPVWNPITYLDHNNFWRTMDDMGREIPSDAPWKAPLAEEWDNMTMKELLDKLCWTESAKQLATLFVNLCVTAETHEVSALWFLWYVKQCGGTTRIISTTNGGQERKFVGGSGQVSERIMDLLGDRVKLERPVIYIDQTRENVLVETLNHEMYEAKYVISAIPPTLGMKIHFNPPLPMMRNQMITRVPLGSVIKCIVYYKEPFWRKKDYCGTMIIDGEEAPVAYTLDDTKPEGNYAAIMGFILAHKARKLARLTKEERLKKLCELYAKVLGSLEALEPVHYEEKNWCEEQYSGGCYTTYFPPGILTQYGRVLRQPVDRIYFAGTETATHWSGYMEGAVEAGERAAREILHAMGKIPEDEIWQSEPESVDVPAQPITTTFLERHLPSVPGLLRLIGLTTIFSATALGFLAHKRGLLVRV
Experiment: Competition binding, displacement of safinamide from MAO-B microsomes (LC-MS)
Parameters: purchased Sigma M7441
Conditions: read-out: IC50, displacement of safinamide; 30 nM safinamide, 10 μg MAO-B microsomes

| STRUCTURE_STRING | IC50 |
| --- | --- |
| Cc1nccc2c1[nH]c1cc(OCCF)ccc12 | > 10 µM |

* * *

In this section we review reported pIC50 values for a set of compounds.
target: [^18F]flortaucipir binding to normal human brain (temporal cortex sections); test: [^18F]flortaucipir autoradiography competition binding assay with MAO-A and MAO-B inhibitors; conditions: normal (tau NFT negative) human temporal cortex sections, 1.4 nM [^18F]flortaucipir, mild PBS wash; read-out: IC50, inhibition of [^18F]flortaucipir binding (autoradiography)
pIC50: −log10 of the molar value.

| COMPOUND | BOUND_OPERATOR | pIC50 |
| --- | --- | --- |
| C[C@H](NCc1ccc(OCc2cccc(F)c2)cc1)C(N)=O [safinamide] | ≤ | 5.00 |
| Cc1nccc2c1[nH]c1cc(OCCF)ccc12 [fluoroethyl-harmol] | = | 6.11 |
| Fc1ccc(-c2ccc3c(c2)[nH]c2ccncc23)cn1 [flortaucipir] | = | 6.57 |

* * *

Molecular target: Human recombinant MAO-B (Homo sapiens)
Construct: purchased Sigma M7441
Sequence (P27338 1-520): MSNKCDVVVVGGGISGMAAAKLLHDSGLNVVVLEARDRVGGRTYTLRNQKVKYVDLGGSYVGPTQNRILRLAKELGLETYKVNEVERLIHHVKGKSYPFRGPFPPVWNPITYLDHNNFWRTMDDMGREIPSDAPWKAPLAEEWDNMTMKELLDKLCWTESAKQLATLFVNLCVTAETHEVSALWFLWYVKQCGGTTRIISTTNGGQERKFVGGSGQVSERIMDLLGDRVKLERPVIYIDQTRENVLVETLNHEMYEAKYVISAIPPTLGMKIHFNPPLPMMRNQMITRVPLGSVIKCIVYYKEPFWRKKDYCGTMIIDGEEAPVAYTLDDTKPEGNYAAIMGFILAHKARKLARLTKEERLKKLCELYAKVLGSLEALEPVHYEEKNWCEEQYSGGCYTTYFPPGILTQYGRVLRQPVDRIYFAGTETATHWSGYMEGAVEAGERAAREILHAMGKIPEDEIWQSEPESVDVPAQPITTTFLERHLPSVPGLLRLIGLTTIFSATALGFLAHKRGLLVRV
Assay: Saturation binding of radioligand to MAO-B microsomes
Details: NSB defined with 1 μM THK5351
pKd: −log10 of the molar value.
OBSERVATION_TYPE: pKd

| COMPOUND | ASSAY_VALUE |
| --- | --- |
| CNc1ccc(-c2ccc3cc(OC[C@H](O)CF)ccc3n2)cn1 [[^18F]THK5351] | 7.40 |

* * *

Target: Human recombinant MAO-B (Homo sapiens)
Construct: purchased Sigma M7441
Sequence (P27338 1-520): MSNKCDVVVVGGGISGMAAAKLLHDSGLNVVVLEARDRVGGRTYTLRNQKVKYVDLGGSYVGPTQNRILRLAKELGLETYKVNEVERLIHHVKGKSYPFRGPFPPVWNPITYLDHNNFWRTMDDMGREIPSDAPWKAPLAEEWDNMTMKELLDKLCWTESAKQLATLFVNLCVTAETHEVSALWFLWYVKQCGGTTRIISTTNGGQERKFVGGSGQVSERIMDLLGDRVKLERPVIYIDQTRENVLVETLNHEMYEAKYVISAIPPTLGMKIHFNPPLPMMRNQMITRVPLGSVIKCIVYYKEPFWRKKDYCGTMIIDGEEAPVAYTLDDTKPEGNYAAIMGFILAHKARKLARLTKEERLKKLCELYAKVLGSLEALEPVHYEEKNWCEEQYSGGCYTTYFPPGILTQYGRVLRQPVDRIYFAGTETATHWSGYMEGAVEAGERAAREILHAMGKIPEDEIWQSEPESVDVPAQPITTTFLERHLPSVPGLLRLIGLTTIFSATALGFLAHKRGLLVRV
Assay: Saturation binding of radioligand to MAO-B microsomes
Conditions: NSB defined as binding to control microsomes

| COMPOUND | STUDY_TARGET | UNIT_TAG | Kd |
| --- | --- | --- | --- |
| CNc1ccc(-c2ccc3cc(OC[C@H](O)CF)ccc3n2)cn1 [[^18F]THK5351] | Human recombinant MAO-B (Homo sapiens) | nM | 37 |

* * *

Target: MAO-B microsomes (Homo sapiens)
Sequence (P27338 1-520): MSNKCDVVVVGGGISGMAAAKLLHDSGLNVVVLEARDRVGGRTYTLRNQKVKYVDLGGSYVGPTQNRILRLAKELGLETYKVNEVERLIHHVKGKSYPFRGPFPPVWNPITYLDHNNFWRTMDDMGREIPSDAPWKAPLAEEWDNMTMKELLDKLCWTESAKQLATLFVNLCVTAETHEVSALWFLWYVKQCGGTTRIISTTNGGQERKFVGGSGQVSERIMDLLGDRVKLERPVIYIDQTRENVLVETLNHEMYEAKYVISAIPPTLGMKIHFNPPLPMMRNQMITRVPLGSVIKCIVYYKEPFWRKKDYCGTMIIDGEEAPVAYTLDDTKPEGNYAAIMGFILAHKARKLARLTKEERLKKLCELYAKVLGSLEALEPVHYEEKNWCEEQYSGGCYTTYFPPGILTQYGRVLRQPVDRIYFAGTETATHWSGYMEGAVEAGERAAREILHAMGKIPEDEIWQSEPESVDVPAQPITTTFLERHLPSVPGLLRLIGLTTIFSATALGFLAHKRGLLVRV
Test: Competition binding, displacement of safinamide from MAO-B microsomes (LC-MS)
Design: purchased Sigma M7441
OBSERVATION_TYPE: IC50 (µM)

| STRUCTURE_STRING | OBSERVATION_TYPE | ASSAY_VALUE |
| --- | --- | --- |
| Fc1ccc(-c2ccc3c(c2)[nH]c2ccncc23)cn1 | IC50 | 1.3 |

* * *

Target: Human recombinant MAO-B (Homo sapiens)
Construct: purchased Sigma M7441
Assay: Saturation binding of radioligand to MAO-B microsomes
Settings: NSB defined with 10 μM deprenyl
Method: The dissociation constant (Kd) was determined by saturation binding, in which the total and non-specific binding of the radioligand was measured at various concentrations. Human recombinant MAO-A, MAO-B, and control microsomes were acquired from Sigma (M7316, M7441, and M7566, respectively). All microsome preparations were at a concentration of 5 mg protein/mL. […] Filters were assayed for radioactivity in a Wizard 2480 automatic gamma-counter (Perkin Elmer).
pKd: −log10 of the molar value.

| COMPOUND | pKd |
| --- | --- |
| CNc1ccc(-c2ccc3cc(OC[C@H](O)CF)ccc3n2)cn1 [[^18F]THK5351] | 7.41 |

The reported measurements were obtained from paper PMC9399028.
